All figures here come from ChEMBL document CHEMBL1152384.

# system under test: UniProtKB P00742
# Sequence (P00742 41-179 limits assumed): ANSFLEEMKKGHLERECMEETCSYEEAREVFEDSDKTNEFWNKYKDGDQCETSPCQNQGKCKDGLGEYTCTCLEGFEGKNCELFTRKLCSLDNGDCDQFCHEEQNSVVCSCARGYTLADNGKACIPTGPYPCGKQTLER
# Sequence (P00742 235-488 limits assumed): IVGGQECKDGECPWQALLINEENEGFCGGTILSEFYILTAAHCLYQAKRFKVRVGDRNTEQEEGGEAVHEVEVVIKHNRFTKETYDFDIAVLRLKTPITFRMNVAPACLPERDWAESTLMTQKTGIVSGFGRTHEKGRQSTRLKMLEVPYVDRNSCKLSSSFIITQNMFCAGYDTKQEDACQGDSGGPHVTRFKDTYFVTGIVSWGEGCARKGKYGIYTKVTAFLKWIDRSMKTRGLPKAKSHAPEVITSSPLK
# protocol notes: Inhibition of human factor 10a assessed as residual activity at 2.6 mM by spectrophotometry
Listing of entries alongside the reported Activity.
Just the number please, in %, no unit attached.

Solved cases below.
| smiles data | unit descriptor | Activity |
| --- | --- | --- |
| Cc1oc2cc(OS(=O)(=O)O)c(OS(=O)(=O)O)cc2c1C(=O)O | % | 75 |
| COc1cc2oc(C)c(C(=O)O)c2cc1OS(=O)(=O)O | % | 42 |

Continue with the compound presented below.
Query string: For the compound `COc1cc2c(C(=O)O)c(C)oc2cc1OS(=O)(=O)O` , give its reported Activity.
Result string: 86
